target: PI3Kγ (p110γ) Recombinant Human Protein (Homo sapiens (Human), UniProt P48736); assay: PI3K-γ Scintillation Proximity Assay; type: biochemical; conditions: read-out: PI3Kγ IC50
Sequence (P48736 whole entry): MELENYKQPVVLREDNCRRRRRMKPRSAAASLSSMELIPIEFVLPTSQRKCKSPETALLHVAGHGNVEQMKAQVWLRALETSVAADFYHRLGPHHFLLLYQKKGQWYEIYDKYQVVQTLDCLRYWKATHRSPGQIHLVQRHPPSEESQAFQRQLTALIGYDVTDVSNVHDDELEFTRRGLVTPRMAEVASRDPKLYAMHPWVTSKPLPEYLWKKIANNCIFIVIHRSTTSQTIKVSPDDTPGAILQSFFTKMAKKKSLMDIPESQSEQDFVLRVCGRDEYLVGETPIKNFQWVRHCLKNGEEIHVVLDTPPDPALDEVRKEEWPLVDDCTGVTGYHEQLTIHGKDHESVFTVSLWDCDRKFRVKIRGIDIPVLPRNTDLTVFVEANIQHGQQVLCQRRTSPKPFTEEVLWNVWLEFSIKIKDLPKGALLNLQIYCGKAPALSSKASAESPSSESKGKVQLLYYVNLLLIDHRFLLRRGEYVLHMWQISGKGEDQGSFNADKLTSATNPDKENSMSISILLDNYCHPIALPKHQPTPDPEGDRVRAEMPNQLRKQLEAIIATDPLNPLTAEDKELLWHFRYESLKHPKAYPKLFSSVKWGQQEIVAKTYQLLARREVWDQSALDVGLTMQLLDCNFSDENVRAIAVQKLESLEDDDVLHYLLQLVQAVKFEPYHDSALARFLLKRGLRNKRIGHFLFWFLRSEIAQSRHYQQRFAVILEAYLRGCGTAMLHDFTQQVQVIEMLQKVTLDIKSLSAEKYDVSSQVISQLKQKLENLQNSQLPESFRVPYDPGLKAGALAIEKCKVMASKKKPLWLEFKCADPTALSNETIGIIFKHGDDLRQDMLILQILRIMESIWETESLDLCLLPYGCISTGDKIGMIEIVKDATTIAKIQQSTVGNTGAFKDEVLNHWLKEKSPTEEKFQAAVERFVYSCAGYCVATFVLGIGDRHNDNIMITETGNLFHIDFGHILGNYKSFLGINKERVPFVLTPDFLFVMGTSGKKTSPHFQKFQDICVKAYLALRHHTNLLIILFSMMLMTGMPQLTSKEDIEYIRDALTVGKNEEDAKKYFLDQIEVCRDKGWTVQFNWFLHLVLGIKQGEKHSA
pIC50: −log10 of the molar value. Structures can show the parent of a compound that is named as a salt.
Recorded pIC50 by entry

1. Cc1ccc(S(=O)(=O)NC23CCC(C(O)C(F)(F)F)(CC2)OC3)cc1-c1cnc2c(N)ncnn12 (racemic): > 7.00
2. Cc1ccc(S(=O)(=O)N[C@H]2CC[C@H](O)CC2)cc1-c1cnc2c(N)nc(-c3cnn(C(C)(C)C#N)c3)cn12: > 7.00
3. Cc1ccc(S(C)(=O)=O)cc1-c1cnc2c(N)nc(C(=O)Nc3cc(-c4ccco4)[nH]n3)cn12 [Example 454, trifluoroacetate salt]: 6.30 to 7.00

Could you tell me which pIC50 is on file for `Cc1ccc(S(=O)(=O)N[C@H]2CC[C@H](CO)OC2)cc1-c1cnc2c(N)nccn12` ?
> 7.00

Could you tell me which pIC50 is on file for [2H]C([2H])([2H])c1ccc(S(=O)(=O)NC23CC(CC#N)(C2)C3)cc1-c1cnc2c(N)ncnn12 [Example 371, trifluoroacetate salt] ?
> 7.00

Could you tell me which pIC50 is on file for `[2H]C([2H])([2H])c1ccc(S(=O)(=O)N[C@H]2CC[C@H](CC#N)OC2)cc1-c1cnc2c(N)nc(C(F)(F)F)cn12` ?
> 7.00

====

Biological target: PI3Kδ (p110δ/p85α) Recombinant Human Protein (Homo sapiens (Human), UniProt O00329)
Sequence (O00329 whole entry): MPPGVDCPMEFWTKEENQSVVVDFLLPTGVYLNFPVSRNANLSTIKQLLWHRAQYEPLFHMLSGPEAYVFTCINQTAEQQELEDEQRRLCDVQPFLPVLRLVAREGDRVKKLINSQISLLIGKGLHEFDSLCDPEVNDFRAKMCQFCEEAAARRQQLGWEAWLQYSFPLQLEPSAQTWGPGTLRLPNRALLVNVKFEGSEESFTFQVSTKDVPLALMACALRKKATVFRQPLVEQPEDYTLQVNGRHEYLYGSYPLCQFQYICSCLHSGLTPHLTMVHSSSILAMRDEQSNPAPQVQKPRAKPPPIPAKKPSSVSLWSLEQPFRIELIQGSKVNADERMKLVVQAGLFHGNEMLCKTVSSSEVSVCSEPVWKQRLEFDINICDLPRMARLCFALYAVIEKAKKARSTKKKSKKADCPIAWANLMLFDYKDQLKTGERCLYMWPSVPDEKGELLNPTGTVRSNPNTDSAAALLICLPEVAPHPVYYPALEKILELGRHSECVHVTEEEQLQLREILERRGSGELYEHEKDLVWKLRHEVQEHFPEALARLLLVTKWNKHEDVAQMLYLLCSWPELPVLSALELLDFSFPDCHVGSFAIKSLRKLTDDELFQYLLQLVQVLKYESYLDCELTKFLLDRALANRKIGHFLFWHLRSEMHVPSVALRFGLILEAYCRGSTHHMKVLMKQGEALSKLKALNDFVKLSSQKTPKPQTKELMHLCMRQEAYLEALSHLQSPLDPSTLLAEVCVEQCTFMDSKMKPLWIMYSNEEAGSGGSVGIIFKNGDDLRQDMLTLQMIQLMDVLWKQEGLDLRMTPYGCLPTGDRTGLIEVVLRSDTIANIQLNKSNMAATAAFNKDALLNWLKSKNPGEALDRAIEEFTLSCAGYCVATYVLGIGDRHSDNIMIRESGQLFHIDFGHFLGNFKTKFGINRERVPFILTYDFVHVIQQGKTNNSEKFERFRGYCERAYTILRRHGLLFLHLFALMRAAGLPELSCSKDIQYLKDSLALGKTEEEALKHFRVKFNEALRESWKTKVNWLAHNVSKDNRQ
Sequence (P27986 whole entry partner): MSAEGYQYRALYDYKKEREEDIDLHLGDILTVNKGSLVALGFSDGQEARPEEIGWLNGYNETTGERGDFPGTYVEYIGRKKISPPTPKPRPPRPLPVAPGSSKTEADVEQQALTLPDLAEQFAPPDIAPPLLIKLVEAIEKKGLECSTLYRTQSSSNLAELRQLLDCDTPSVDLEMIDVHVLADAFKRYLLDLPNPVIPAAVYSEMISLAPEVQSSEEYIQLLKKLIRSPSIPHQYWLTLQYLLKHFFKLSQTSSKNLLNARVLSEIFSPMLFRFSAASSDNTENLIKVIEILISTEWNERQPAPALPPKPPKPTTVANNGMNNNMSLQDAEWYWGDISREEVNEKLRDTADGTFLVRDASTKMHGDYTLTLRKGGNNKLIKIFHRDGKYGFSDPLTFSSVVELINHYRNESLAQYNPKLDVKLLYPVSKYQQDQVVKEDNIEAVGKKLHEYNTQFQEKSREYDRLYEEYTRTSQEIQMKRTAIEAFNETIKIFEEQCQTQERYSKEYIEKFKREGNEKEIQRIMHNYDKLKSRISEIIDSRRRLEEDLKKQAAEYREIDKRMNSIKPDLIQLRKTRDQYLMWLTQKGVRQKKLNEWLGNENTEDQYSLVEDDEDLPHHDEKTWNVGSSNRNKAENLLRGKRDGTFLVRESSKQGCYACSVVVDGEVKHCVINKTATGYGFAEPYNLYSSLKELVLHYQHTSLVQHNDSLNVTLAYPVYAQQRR
Assay: PI3Kδ Scintillation Proximity Assay
Description: Example C. PI3Kδ Scintillation Proximity Assay [γ-^33P]ATP (10 mCi/mL) and Wheat Germ Agglutinin (WGA) YSi SPA Scintillation Beads was purchased from Perkin-Elmer (Waltham, Mass.). Lipid kinase substrate, D-myo-Phosphatidylinositol 4,5-bisphosphate (PtdIns(4,5)P2)D (+)-sn-1,2-di-O-octanoylglyceryl, 3-O-phospho linked (PIP2), CAS 204858-53-7, was purchased from Echelon Biosciences (Salt Lake City, Utah). PI3Kδ (p110δ/p85α) Recombinant Human Protein was purchased from Eurofins (St Charles, Mo.). […]
Counter-ions that a name gives are not always drawn.
Recorded IC50 by entry

1. COc1ncccc1-c1cn2c(-c3cc(S(=O)(=O)C(C)(C)C(C)O)ccc3C)cnc2c(N)n1 (centres unmarked) [Example 502, trifluoroacetate]: < 100 nM
2. Cc1ccc(S(=O)(=O)NC23CC(Cn4cccn4)(C2)C3)cc1-c1cnc2c(N)ncnn12 [Example 92, trifluoroacetate salt]: 100 to 500 nM
3. Cc1ccc(S(=O)(=O)N2CCC3(CCCO3)C2)cc1-c1cnc2c(N)ncnn12 (centres unmarked) [Example 202]: 500 to 2000 nM

Could you tell me which IC50 is on file for Cc1ccc(S(=O)(=O)NC2CCOCC2)cc1-c1cnc2c(N)nccn12 [Example 49] ?
500 to 2000 nM

Could you tell me which IC50 is on file for Cc1ccc(S(=O)(=O)N2CC3C(O)C2CN3C2CC(C#N)C2)cc1-c1cnc2c(N)nc(C(F)(F)F)nn12 (centres unmarked) [Example 354] ?
500 to 2000 nM

Could you tell me which IC50 is on file for Cc1ccc(S(=O)(=O)N[C@H]2CC[C@H](CO)OC2)cc1-c1cnc2c(N)ncnn12 [Example 62] ?
100 to 500 nM

Could you tell me which IC50 is on file for N#CC12CCC(NS(=O)(=O)c3cc(-c4cnc5c(N)nc(C(F)(F)F)nn45)ccc3F)(C1)C2 [Example 417, trifluoroacetate salt] ?
100 to 500 nM

Could you tell me which IC50 is on file for Cc1ncc(S(=O)(=O)NC23CCC(C#N)(C2)C3)cc1-c1cnc2c(N)ncnn12 [Example 256, trifluoroacetate salt] ?
100 to 500 nM

====

molecular target: PI3Kδ (p110δ/p85α) Recombinant Human Protein (Homo sapiens (Human), UniProt O00329); assay: PI3Kδ Scintillation Proximity Assay
pIC50: −log10 of the molar value. Where a name gives a salt, the structure may show the parent alone.
Recorded pIC50 by entry

1) Cc1ccc(S(=O)(=O)NCC2(C)COC2)cc1-c1cnc2c(N)nccn12 [Example 15, trifluoroacetate]: 5.70 to 6.30
2) Cc1ccc(S(=O)(=O)N[C@H]2CC[C@H](N)CC2)cc1-c1cnc2c(N)ncnn12 [Example 73, bis-hydrochloride]: 5.70 to 6.30
3) Cc1ccc(S(=O)(=O)N[C@H]2CC[C@H](O)CC2)cc1-c1cn2cc(-c3ccccc3F)nc(N)c2n1: > 7.00

Could you tell me which pIC50 is on file for Cc1ccc(S(=O)(=O)NC23CC(Cn4ccnc4)(C2)C3)cc1-c1cnc2c(N)ncnn12 [Example 112, trifluoroacetate salt] ?
6.30 to 7.00

====

Recorded IC50 by entry
target: PI3Kδ (p110δ/p85α) Recombinant Human Protein (Homo sapiens (Human), UniProt O00329); test: PI3Kδ Scintillation Proximity Assay
Counter-ions that a name gives are not always drawn.

Illustrative cases are given below, each with its answer.
1. Cc1ccc(S(=O)(=O)N[C@H]2CC[C@H](CO)OC2)cc1-c1cnc2c(N)nccn12 [Example 57]: 500 to 2000 nM
2. Cc1ccc(S(=O)(=O)NC23CCC(C(N)=O)(C2)C3)cc1-c1cnc2c(N)nc(C(F)(F)F)cn12 [Example 291, trifluoroacetate salt]: 100 to 500 nM
3. C[C@]1(O)CC[C@H](NS(=O)(=O)c2cc(-c3cnc4c(N)ncnn34)ccc2Cl)CC1 [Example 377]: < 100 nM

Could you tell me which IC50 is on file for Cc1ccc(S(=O)(=O)NC23CCN(CC2)CC3)cc1-c1cnc2c(N)ncnn12 [Example 182, trifluoroacetate salt] ?
500 to 2000 nM

Could you tell me which IC50 is on file for Cc1ccc(S(=O)(=O)NC(C)(C)C(N)=O)cc1-c1cnc2c(N)ncnn12 [Example 190, trifluoroacetate] ?
500 to 2000 nM

Could you tell me which IC50 is on file for Cc1ccc(S(=O)(=O)N[C@H]2CC[C@H](O)CC2)cc1-c1cnc2c(N)nc(Br)cn12 [Example 16] ?
< 100 nM

Could you tell me which IC50 is on file for Cc1ccc(S(=O)(=O)N2CC3(CCN(C)C3=O)C2)cc1-c1cnc2c(N)nc(C(F)(F)F)nn12 [Example 348] ?
< 100 nM

Could you tell me which IC50 is on file for Cc1ccc(S(=O)(=O)NC2CN(C3COC3)C2)cc1-c1cnc2c(N)nc(C(F)(F)F)nn12 [Example 337, trifluoroacetate salt] ?
100 to 500 nM

Could you tell me which IC50 is on file for Cc1ccc(S(C)(=O)=O)cc1-c1cnc2c(N)nc(-c3ccc(CN4CCCC4)cc3F)cn12 [Example 487] ?
100 to 500 nM

Could you tell me which IC50 is on file for Cc1ccc(S(C)(=O)=O)cc1-c1cnc2c(N)nc(-c3ccccc3F)cn12 [Example 40, trifluoroacetate] ?
100 to 500 nM

Could you tell me which IC50 is on file for CC(=O)N[C@H]1CC[C@H](NS(=O)(=O)c2ccc(C)c(-c3cnc4c(N)ncnn34)c2)CC1 [Example 74] ?
500 to 2000 nM

Could you tell me which IC50 is on file for Cc1ccc(S(=O)(=O)NC23CC(N4CCOCC4)(C2)C3)cc1-c1cnc2c(N)ncnn12 [Example 116, trifluoroacetate salt] ?
500 to 2000 nM

Could you tell me which IC50 is on file for Cc1ccc(S(=O)(=O)N(CCC#N)CCCO)cc1-c1cnc2c(N)ncnn12 [Example 175] ?
100 to 500 nM

Could you tell me which IC50 is on file for Cc1cc(-c2cnc3c(N)nccn23)cc(S(=O)(=O)N[C@H]2CC[C@H](O)CC2)c1 [Example 44] ?
> 2000 nM

Could you tell me which IC50 is on file for Cc1ccc(S(=O)(=O)N2CC3CC3(C#N)C2)cc1-c1cnc2c(N)nc(C(F)(F)F)cn12 (stereo not drawn) [Example 302] ?
500 to 2000 nM

====

tested on: Phosphorylated Ribosomal Protein S6 (RPS6); assay: THP-1 RPS6 ELISA Assay; assay type: cell-based, Human; conditions: THP-1 cells; read-out: PI3Kγ_THP1_RPS6_ELISA IC50
Where a name gives a salt, the structure may show the parent alone.
assay readout: IC50

Illustrative cases are given below, each with its answer.
1. Cc1ccc(S(=O)(=O)NC23CC(C(F)(F)F)(C2)C3)cc1-c1cnc2c(N)ncnn12 [Example 97, trifluoroacetate salt]: 100 to 500 nM
2. Nc1ncnn2c(-c3ccc(Cl)c(S(=O)(=O)NC45CCC(CO)(C4)C5)c3)cnc12 [Example 367, trifluoroacetate salt]: > 1000 nM
3. Cc1ccc(S(=O)(=O)NC23CC(c4nnn[nH]4)(C2)C3)cc1-c1cnc2c(N)ncnn12 [Example 99, trifluoroacetate salt]: > 1000 nM
4. Cc1ccc(S(=O)(=O)NC23CC(C(=O)N(C)C)(C2)C3)cc1-c1cnc2c(N)ncnn12 [Example 96, trifluoroacetate salt]: > 1000 nM
5. Cc1ccc(S(=O)(=O)NC23CC(c4nccs4)(C2)C3)cc1-c1cnc2c(N)ncnn12 [Example 114, trifluoroacetate salt]: 100 to 500 nM

Could you tell me which IC50 is on file for Cc1ccc(S(=O)(=O)NCC2(CO)CCOCC2)cc1-c1cnc2c(N)nc(C(F)(F)F)nn12 [Example 334, trifluoroacetate salt] ?
< 100 nM

Could you tell me which IC50 is on file for Cc1ccc(S(=O)(=O)NC23CC(CC#N)(C2)C3)cc1-c1cnc2c(N)ncnn12 [Example 91, trifluoroacetate salt] ?
100 to 500 nM

Could you tell me which IC50 is on file for Cc1ccc(S(=O)(=O)NC2CC2)cc1-c1cnc2c(N)nccn12 [Example 47] ?
> 1000 nM

Could you tell me which IC50 is on file for Cc1nc(N)c2ncc(-c3cc(S(=O)(=O)NC45CCC(CO)(CC4)OC5)cc(F)c3C)n2n1 [Example 404, trifluoroacetate salt] ?
< 100 nM

Could you tell me which IC50 is on file for Cc1ccc(S(=O)(=O)NCC2(O)CNC2)cc1-c1cnc2c(N)nc(C(F)(F)F)nn12 [Example 335, trifluoroacetate salt] ?
100 to 500 nM

Could you tell me which IC50 is on file for Cc1ccc(S(=O)(=O)NC2COC2)cc1-c1cnc2c(N)ncnn12 [Example 104] ?
500 to 1000 nM
